Consider the following sequences and their measured binding signal readings.
Target: GST-Ap-NF-kB RHD (Exaiptasia pallida (Aiptasia), UniProt A0A913YAJ5 2-422)
Sequence: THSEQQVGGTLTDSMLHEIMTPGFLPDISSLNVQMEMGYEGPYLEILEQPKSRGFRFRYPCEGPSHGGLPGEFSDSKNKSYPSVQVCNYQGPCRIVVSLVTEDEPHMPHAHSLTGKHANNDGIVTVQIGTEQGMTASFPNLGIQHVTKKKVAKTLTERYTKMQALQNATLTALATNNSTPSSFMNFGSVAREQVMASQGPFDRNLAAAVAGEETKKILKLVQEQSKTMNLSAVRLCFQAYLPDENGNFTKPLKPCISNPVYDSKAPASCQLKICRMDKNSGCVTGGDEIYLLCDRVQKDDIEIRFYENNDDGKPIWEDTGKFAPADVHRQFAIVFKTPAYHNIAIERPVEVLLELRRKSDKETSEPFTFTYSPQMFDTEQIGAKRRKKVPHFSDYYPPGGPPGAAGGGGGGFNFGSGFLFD
Test: protein-binding microarray (PBM); PBM: ~300 nM protein, 6 mM HEPES pH 7.8, 80 mM KCl, 0.5 mM EDTA, 0.5 mM EGTA, 6% glycerol, 35 ng/ul poly-dIdC, 1% milk, 1 h, room temperature; high values mean tight binding
Conditions: dsDNA, one strand shown

monomer_sequence: CCGATTAACATCAGGAAACACCCTGATGTTAATCGGGTCTTGATTCGCTTGACGCTGCTG
binding signal, z-score: 3.05

monomer_sequence: CCGATTAACATCAAGGGATCCCCTGATGTTAATCGGGTCTTGATTCGCTTGACGCTGCTG
binding signal, z-score: 8.25

monomer_sequence: CCGATTAACATCAGGAAAGCCCATGATGTTAATCGGGTCTTGATTCGCTTGACGCTGCTG
binding signal, z-score: 1.24

monomer_sequence: CCGATTAACATCAATACACCCCCTGATGTTAATCGGGTCTTGATTCGCTTGACGCTGCTG
binding signal, z-score: 3.75

monomer_sequence: CCGATTAACATCAGGCATCCCCCTGATGTTAATCGGGTCTTGATTCGCTTGACGCTGCTG
binding signal, z-score: 6.28

###

Each entry below carries its reported binding signal.
Molecular target: GST-Co-NF-kB (Capsaspora owczarzaki, UniProt F1ARL5 200-546)
Sequence: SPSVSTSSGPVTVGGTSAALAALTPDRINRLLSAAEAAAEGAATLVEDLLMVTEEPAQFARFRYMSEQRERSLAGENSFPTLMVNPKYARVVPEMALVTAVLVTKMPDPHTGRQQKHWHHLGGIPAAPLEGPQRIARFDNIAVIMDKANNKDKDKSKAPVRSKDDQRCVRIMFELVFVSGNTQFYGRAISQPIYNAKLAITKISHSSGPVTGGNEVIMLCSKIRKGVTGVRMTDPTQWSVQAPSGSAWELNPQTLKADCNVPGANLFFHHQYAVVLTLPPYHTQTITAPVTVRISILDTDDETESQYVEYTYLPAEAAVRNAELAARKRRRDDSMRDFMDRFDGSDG
Test: protein-binding microarray (PBM); PBM: ~300 nM protein, 6 mM HEPES pH 7.8, 80 mM KCl, 0.5 mM EDTA, 0.5 mM EGTA, 6% glycerol, 35 ng/ul poly-dIdC, 1% milk, 1 h, room temperature; high values mean tight binding
Conditions: dsDNA, one strand shown

monomer_sequence: CCGATTAACATCACCGATTTCCCTGATGTTAATCGGGTCTTGATTCGCTTGACGCTGCTG
binding signal (z-score): 3.27
//
monomer_sequence: CCGATTAACATCAAAAAGCCCCCTGATGTTAATCGGGTCTTGATTCGCTTGACGCTGCTG
binding signal (z-score): 3.86
//
monomer_sequence: CCGATTAACATCAGAATCCCCCCTGATGTTAATCGGGTCTTGATTCGCTTGACGCTGCTG
binding signal (z-score): 7.63
//
monomer_sequence: CCGATTAACATCAAAAACCCCCCTGATGTTAATCGGGTCTTGATTCGCTTGACGCTGCTG
binding signal (z-score): 5.82
//
monomer_sequence: CCGATTAACATCAGAAAAACCCCTGATGTTAATCGGGTCTTGATTCGCTTGACGCTGCTG
binding signal (z-score): 2.03
//
monomer_sequence: CCGATTAACATCACGTCCCCCCCTGATGTTAATCGGGTCTTGATTCGCTTGACGCTGCTG
binding signal (z-score): 5.34
//
monomer_sequence: CCGATTAACATCACAGAAACCCCTGATGTTAATCGGGTCTTGATTCGCTTGACGCTGCTG
binding signal (z-score): 1.21
//
monomer_sequence: CCGATTAACATCAGGGGATCCCATGATGTTAATCGGGTCTTGATTCGCTTGACGCTGCTG
binding signal (z-score): 2.81
//
monomer_sequence: CCGATTAACATCAAATCCCCCCCTGATGTTAATCGGGTCTTGATTCGCTTGACGCTGCTG
binding signal (z-score): 9.25
//
monomer_sequence: CCGATTAACATCAAGGGGGGGTGTGATGTTAATCGGGTCTTGATTCGCTTGACGCTGCTG
binding signal (z-score): 4.12
//
monomer_sequence: CCGATTAACATCATGGGGGGAAATGATGTTAATCGGGTCTTGATTCGCTTGACGCTGCTG
binding signal (z-score): 9.84
//
monomer_sequence: CCGATTAACATCAGGGGGGGGGATGATGTTAATCGGGTCTTGATTCGCTTGACGCTGCTG
binding signal (z-score): 7.03
//
monomer_sequence: CCGATTAACATCACGCAATTCCCTGATGTTAATCGGGTCTTGATTCGCTTGACGCTGCTG
binding signal (z-score): 2.33
//
monomer_sequence: CCGATTAACATCAAAAGTCCCCTTGATGTTAATCGGGTCTTGATTCGCTTGACGCTGCTG
binding signal (z-score): 3.35
//
monomer_sequence: CCGATTAACATCAGGGAATTAGATGATGTTAATCGGGTCTTGATTCGCTTGACGCTGCTG
binding signal (z-score): 2.41
//
monomer_sequence: CCGATTAACATCAGGGTATAACGTGATGTTAATCGGGTCTTGATTCGCTTGACGCTGCTG
binding signal (z-score): 1.1
//
monomer_sequence: CCGATTAACATCAGGGGCGCCCCTGATGTTAATCGGGTCTTGATTCGCTTGACGCTGCTG
binding signal (z-score): 3
//
monomer_sequence: CCGATTAACATCACCCTTTCCCCTGATGTTAATCGGGTCTTGATTCGCTTGACGCTGCTG
binding signal (z-score): 5.72

###

Molecular target: GST-Aq-NF-kB (Amphimedon queenslandica, UniProt A9Y5G7 2-389)
Sequence: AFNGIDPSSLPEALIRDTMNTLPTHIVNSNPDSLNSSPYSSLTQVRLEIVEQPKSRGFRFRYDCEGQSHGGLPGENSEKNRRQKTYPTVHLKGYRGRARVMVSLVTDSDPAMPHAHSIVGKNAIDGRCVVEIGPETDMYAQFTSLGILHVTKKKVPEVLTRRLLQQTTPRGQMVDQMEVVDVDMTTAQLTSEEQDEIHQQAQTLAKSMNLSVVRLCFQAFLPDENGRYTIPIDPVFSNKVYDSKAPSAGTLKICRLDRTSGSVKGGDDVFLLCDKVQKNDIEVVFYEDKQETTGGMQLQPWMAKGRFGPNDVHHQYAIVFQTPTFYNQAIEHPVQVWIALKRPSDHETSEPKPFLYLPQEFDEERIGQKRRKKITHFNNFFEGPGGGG
Test: protein-binding microarray (PBM); PBM: ~300 nM protein, 6 mM HEPES pH 7.8, 80 mM KCl, 0.5 mM EDTA, 0.5 mM EGTA, 6% glycerol, 35 ng/ul poly-dIdC, 1% milk, 1 h, room temperature; Ap Aiptasia and Nv Nematostella (sea anemones) / Co Capsaspora / Aq Amphimedon (sponge) / Dm Drosophila / Hu human; RHD is the Rel homology domain; high values mean tight binding
Settings: dsDNA, one strand shown
Entries annotated with measured binding signal

monomer_sequence: CCGATTAACATCAAGGAACTTCCTGATGTTAATCGGGTCTTGATTCGCTTGACGCTGCTG
binding signal [z-score]: 1.83

monomer_sequence: CCGATTAACATCACCTTGGGAAATGATGTTAATCGGGTCTTGATTCGCTTGACGCTGCTG
binding signal [z-score]: 1.62

monomer_sequence: CCGATTAACATCAGAAATTCCGCTGATGTTAATCGGGTCTTGATTCGCTTGACGCTGCTG
binding signal [z-score]: 1.09

monomer_sequence: CCGATTAACATCAAATTTTCCCCTGATGTTAATCGGGTCTTGATTCGCTTGACGCTGCTG
binding signal [z-score]: 7.36

monomer_sequence: CCGATTAACATCAGATACCCCCCTGATGTTAATCGGGTCTTGATTCGCTTGACGCTGCTG
binding signal [z-score]: 4.46

monomer_sequence: CCGATTAACATCAGGGGGAAAACTGATGTTAATCGGGTCTTGATTCGCTTGACGCTGCTG
binding signal [z-score]: 7.21

monomer_sequence: CCGATTAACATCAGGGGGATGTATGATGTTAATCGGGTCTTGATTCGCTTGACGCTGCTG
binding signal [z-score]: 4.11

monomer_sequence: CCGATTAACATCACCATTTTCCCTGATGTTAATCGGGTCTTGATTCGCTTGACGCTGCTG
binding signal [z-score]: 3.42

monomer_sequence: CCGATTAACATCAGGGGAGGGACTGATGTTAATCGGGTCTTGATTCGCTTGACGCTGCTG
binding signal [z-score]: 5.21

monomer_sequence: CCGATTAACATCAGGGGATGTGCTGATGTTAATCGGGTCTTGATTCGCTTGACGCTGCTG
binding signal [z-score]: 2.79

monomer_sequence: CCGATTAACATCAGGGGGGGGGATGATGTTAATCGGGTCTTGATTCGCTTGACGCTGCTG
binding signal [z-score]: 5.02

monomer_sequence: CCGATTAACATCACGGACTCCCCTGATGTTAATCGGGTCTTGATTCGCTTGACGCTGCTG
binding signal [z-score]: 4.33

monomer_sequence: CCGATTAACATCAAAAGAACCCCTGATGTTAATCGGGTCTTGATTCGCTTGACGCTGCTG
binding signal [z-score]: 4.8

monomer_sequence: CCGATTAACATCAGGGACAACCCTGATGTTAATCGGGTCTTGATTCGCTTGACGCTGCTG
binding signal [z-score]: 5.59

monomer_sequence: CCGATTAACATCACATACCCCCCTGATGTTAATCGGGTCTTGATTCGCTTGACGCTGCTG
binding signal [z-score]: 3.91

monomer_sequence: CCGATTAACATCAAATTTCCCGTTGATGTTAATCGGGTCTTGATTCGCTTGACGCTGCTG
binding signal [z-score]: 5.53

monomer_sequence: CCGATTAACATCAAAAAAAGTCCTGATGTTAATCGGGTCTTGATTCGCTTGACGCTGCTG
binding signal [z-score]: 4.05

monomer_sequence: CCGATTAACATCACAAGTTCCCCTGATGTTAATCGGGTCTTGATTCGCTTGACGCTGCTG
binding signal [z-score]: 6.21
